Examples of molecules with documented GI50 follow.
Test system: UO-31
TEST: NCI tumour cell line growth inhibition, 48 h
The source made the active and inactive calls. No stated cut-off is given here; in the data, active = GI50 up to about 1.1 µM and inactive = higher.

MOLECULE: O=[N+]([O-])c1cccc([N+](=O)[O-])c1S(=O)(=O)c1ccccc1
GI50: 1.86 µM (inactive)

MOLECULE: Cc1n[nH]c(=O)n1C1CCCC1
GI50: > 100 µM (inactive)

MOLECULE: CC1=C(C(=O)Nc2ccccc2)C(c2cc(Cl)cc(Cl)c2)C(C(=O)Nc2ccccc2)=C(C)N1
GI50: 13.9 µM (inactive)

MOLECULE: Cc1ccc(N2C(=O)/C(=C/c3ccc(N(CCC#N)CCC#N)cc3)N=C2COc2ccc(Cl)cc2Cl)cc1
GI50: > 100 µM (inactive)

MOLECULE: Nc1ccccc1.O=P(O)(OP(=O)(O)c1ccccc1)c1ccccc1
GI50: > 100 µM (inactive)

MOLECULE: COc1ccc(Oc2ccccc2N)cc1
GI50: 26.5 µM (inactive)

MOLECULE: CC(C)(C)OC(=O)N1N=NC2C3OC(CC3=O)C21 (configuration not stated)
GI50: > 100 µM (inactive)

MOLECULE: COC(=O)/C=C\C(C#N)(C#N)/N=C/c1ccc(C)s1
GI50: 1.67 µM (inactive)

MOLECULE: CC1(C)OC(=O)C(C#N)=C1C[n+]1ccccc1
GI50: > 10 µM (inactive)

MOLECULE: C=C1C(=O)O[C@@H]2[C@@H]3O[C@@H](C[C@@H]13)[C@](C)(O)CC/C=C(\C)CCC[C@@H]2C
GI50: 10.8 µM (inactive)

MOLECULE: O/N=C1/C(=C/c2ccc(Cl)cc2)CCCC1C(NO)c1ccc(Cl)cc1 (configuration not stated)
GI50: 16.6 µM (inactive)

MOLECULE: COC1=C2CC(C)CC(OC)[C@@H](OC(=O)CCN)[C@H](C)/C=C(\C)C(OC(N)=O)C(OC)/C=C\C=C(/C)C(=O)NC(=CC1=O)C2=O (some centres not stated)
GI50: 4.54 µM (inactive)
